Every entry's value here was drawn from ChEMBL document CHEMBL2029274.

Each entry below carries its reported remaining at 0.5 h, 1 µM.
MEASUREMENT DESCRIPTION: Metabolic stability in mouse liver microsomes assessed as compound remaining at 1 uM after 30 mins in the presence of NADPH
Format: ADME, Microsome
EXPERIMENTAL CONDITIONS: read-out: Stability
OBSERVATION TYPE: remaining at 0.5 h, 1 µM (%)

1. O=C(CCC1=CCN(CCc2ccc(C(F)(F)F)cc2)C1=O)NO :: 75.9
2. COc1ccc(CCN2CC=C(CCC(=O)NO)C2=O)cc1 :: 98.3
3. O=C1CC2(CCCC2)CC(=O)N1CCCCN1CCN(c2ncccn2)CC1 :: 106
4. O=C(CCC1=CCN(CCc2ccccc2)C1=O)NO :: 82.9
